Target: T1, RBFOX1 RRM (Homo sapiens, UniProt Q9NWB1 109-208)
T1 sequence: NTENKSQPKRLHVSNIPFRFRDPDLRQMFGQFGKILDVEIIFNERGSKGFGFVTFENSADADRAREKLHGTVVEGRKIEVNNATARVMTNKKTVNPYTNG
Assay: EMSA; HiTS-Eq, 1 nM pool, 10 min; buffer printed only for the single-RNA assays: 10 mM Tris pH 7.5, 150 mM NaCl, 3.4 mM EDTA, 0.001% NP-40, 30 C
Settings: tags: His6 N-terminal (pET28a); label: 5' 32P
The full ranking holds about 16,000 sequences; the median of “ka relative to ugcaugu” is about 0.0091, and the highest 2% start at about 0.032. This excerpt belongs to a sample that is enriched for the highest values.
binding signal overview

{"binder": "UGCCUUA (DNA:RNA) RNA: GGGAGACCGGAAUUCAGAUUGUCCUGCCUUAUUAAAUCCCGUCGUAGCCACCA DNA 1: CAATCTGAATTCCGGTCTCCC DNA 2: TGGTGGCTACGACGGGATT", "observedProperty": "binding signal", "value": "0.00671 KA relative to UGCAUGU"}

Name the recorded binding signal for GCGUCGC (DNA:RNA) RNA: GGGAGACCGGAAUUCAGAUUGUCCGCGUCGCUUAAAUCCCGUCGUAGCCACCA DNA 1: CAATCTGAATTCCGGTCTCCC DNA 2: TGGTGGCTACGACGGGATT .
0.0157 KA relative to UGCAUGU

Every entry's value here was drawn from paper PMC9911399.
